For each entry below, report its Kd value.
# assay system: human TYK2 (JH2domain-pseudokinase) (Homo sapiens (Human))
# Sequence (P29597 556-888): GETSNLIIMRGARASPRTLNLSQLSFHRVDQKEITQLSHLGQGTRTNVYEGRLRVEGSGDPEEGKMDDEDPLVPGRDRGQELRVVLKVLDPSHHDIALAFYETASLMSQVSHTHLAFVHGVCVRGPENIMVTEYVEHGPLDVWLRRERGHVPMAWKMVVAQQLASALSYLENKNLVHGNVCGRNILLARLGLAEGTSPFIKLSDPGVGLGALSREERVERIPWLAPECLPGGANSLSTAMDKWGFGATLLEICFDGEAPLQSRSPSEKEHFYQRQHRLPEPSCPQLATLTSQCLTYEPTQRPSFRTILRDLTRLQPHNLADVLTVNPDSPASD
# experiment: TYK2 JH2 Domain Binding Assay (KINOMEscan)
# condition label: 11-point 3-fold dilution, top concentration 30,000 nM, duplicate; read-out: hTYK2_JH2_Binding (Kd; nM)

Known Kd results, listed for orientation:
CNc1cc(-c2cnc3n(CC(=O)N4CC5(COC5)C4)cccc2-3)nc2c(C(=O)NC3CC[C@@H]3OC)cnn12 (mixture of isomers) [Compound I-970]: < 0.2 nM
CNc1cc(Nc2cccn(C3CC(F)(F)C3)c2=O)nc2c(C(=O)N[C@@H]3CCC[C@@]3(C)O)cnn12 [Compound I-91]: < 0.2 nM
CNc1cc(Nc2cccn([C@H]3[C@@H]4COC[C@@H]43)c2=O)nc2c(C(=O)N[C@@H]3CCC3(F)F)cnn12 [Compound I-308]: < 0.2 nM
CNc1cc(-c2cnc3n(C4CCN(CCOC)CC4)cccc2-3)nc2c(C(=O)N[C@@H]3CC[C@H]3OC)cnn12 [Compound I-1021]: 0.2 to 1 nM
CNc1cc(Nc2cccn(C(C)C)c2=O)nc2c(C(=O)N[C@H]3CC[C@]3(C)O)cnn12 [Compound I-340]: < 0.2 nM

Items follow; give Kd for each.
1. CO[C@@H]1CCC1NC(=O)c1cnn2c(N)cc(Nc3cccn(-c4ccccn4)c3=O)nc12 (stereo partly shown) [Compound I-245]
2. CNc1cc(Nc2cccn(C3CCOCC3)c2=O)nc2c(C(=O)N[C@H]3C[C@@H]3OC)cnn12 [Compound I-28]
3. CNc1ccc(-c2cc(NC)n3ncc(C(=O)NC4CC[C@@H]4OC)c3n2)n2ccnc12 (stereo partly shown) [Compound I-488]
4. CNc1cc(Nc2cccn([C@H]3C[C@@H]3F)c2=O)nc2c(C(=O)N[C@H]3CC[C@@H](O)C3)cnn12 [Compound I-45]
5. CNc1cc(Nc2cccn(C3COC3)c2=O)nc2c(C(=O)N[C@@H]3CC[C@@H]3F)cnn12 [Compound I-162]
6. O=C(NC1CC[C@@H]1F)c1cnn2c3c(c(-c4cn(C5COC5)c5ncccc45)nc12)OCCN3 (stereo partly shown) [Compound I-774]
7. CNc1cc(Nc2cccn(-c3ocnc3C)c2=O)nc2c(C(=O)N[C@@H]3CC[C@H]3F)cnn12 [Compound I-187]

Result:
["< 0.2 nM", "< 0.2 nM", "< 0.2 nM", "0.2 to 1 nM", "< 0.2 nM", "< 0.2 nM", "< 0.2 nM"]

Items follow; give Kd for each.
1. O=C(N[C@H]1CC[C@@H]1F)c1cnn2c3c(c(-c4cn([C@H]5C[C@H](O)C5)c5ncccc45)nc12)OCCN3 [Compound I-757]
2. CNc1cc(Nc2cccn(-c3ccc(C)nc3)c2=O)nc2c(C(=O)N[C@H]3C[C@@H]3OC)cnn12 [Compound I-35]
3. CNc1cc(Nc2cccn([C@H]3C[C@@H]3F)c2=O)nc2c(C(=O)N[C@@H]3CC[C@@H]3O)cnn12 [Compound I-13]
4. CNc1cc(Nc2cccn([C@H]3CC[C@H](OC)CC3)c2=O)nc2c(C(=O)N[C@H]3C[C@@H]3OC)cnn12 [Compound I-32]
5. CNc1cc(-c2cn([C@@H]3CCOC[C@H]3O)c3ncccc23)nc2c(C(=O)NC3CC3)cnn12 [Compound I-499]

Result:
1. < 0.2 nM
2. < 0.2 nM
3. 0.2 to 1 nM
4. < 0.2 nM
5. < 0.2 nM

Items follow; give Kd for each.
1. CNc1cc(Nc2cccn([C@@H]3C[C@H]3F)c2=O)nc2c(C(=O)N[C@@H]3CC[C@H](O)C3)cnn12 [Compound I-42]
2. CNc1cc(Nc2cccn([C@H]3CC[C@H]3O)c2=O)nc2c(C(=O)N[C@@H]3CCC[C@@H](OC)C3)cnn12 [Compound I-104]
3. CNc1cc(-c2cn([C@H]3CCCOC3)c3ncccc23)nc2c(C(=O)N[C@@H]3COC[C@@H]3O)cnn12 [Compound I-61]
4. CC(C)n1cccc(Nc2nc3c(C(=O)NC4CCC4(F)F)cnn3c3c2OCCN3)c1=O (stereo not shown) [Compound I-765]
5. CNc1cc(-c2cn([C@H]3CCCOC3)c3ncccc23)nc2c(C(=O)N[C@H]3CC[C@H]3O)cnn12 [Compound I-15]
6. CNc1cc(-c2ccc(N3CC[C@H](OC)C3)c3nccn23)nc2c(C(=O)NC3CC[C@H]3O)cnn12 (stereo partly shown) [Compound I-907]
7. CNc1ccc(-c2cc(NC)n3ncc(C(=O)N[C@H]4CC[C@@H]4OC)c3n2)n2ccnc12 [Compound I-489]
8. CNc1cc(Nc2cccn([C@H]3C[C@H](OC)C3)c2=O)nc2c(C(=O)N[C@@H]3C[C@@H]3F)cnn12 [Compound I-8]

Result:
1: 0.2 to 1 nM; 2: 1 to 10 nM; 3: 1 to 10 nM; 4: < 0.2 nM; 5: 0.2 to 1 nM; 6: < 0.2 nM; 7: > 10 nM; 8: < 0.2 nM

Items follow; give Kd for each.
1. CNc1cc(-c2cn([C@H]3CO[C@@H](COC)C3)c3ncccc23)nc2c(C(=O)N[C@@H]3CC[C@H]3OC)cnn12 [Compound I-1019]
2. CNc1cc(Nc2cccn([C@H]3CC[C@@H]3O)c2=O)nc2c(C(=O)N[C@H]3CCC[C@H](OC)C3)cnn12 [Compound I-97]

Result:
1. 1 to 10 nM
2. 1 to 10 nM

Ask: Write down Kd measured for item CNc1cc(Nc2cccn(-c3ocnc3C)c2=O)nc2c(C(=O)NC3CCC3)cnn12 [Compound I-144]
Result: < 0.2 nM

Values from patent US11414431B2
